# systemName: cyno ST2L (cyno)
# method: affinity table; method not stated
readoutKind: kon (M⁻¹ s⁻¹)
Unit M⁻¹ s⁻¹ implied. Number only.

Using the record for STLM212 (antibody, from another filing, V domains shown) VH: EVQLLESGGGLVQPGGSLRLSCAASGFTFSVYDMIWVRQAPGKGLEWVSTIRGEGGGTYYADSVKGRFTISRDNSKNTLYLQMNSLRAEDTAVYYCARDPWSTEGSFFVLDYWGQGTLVTVSS VL: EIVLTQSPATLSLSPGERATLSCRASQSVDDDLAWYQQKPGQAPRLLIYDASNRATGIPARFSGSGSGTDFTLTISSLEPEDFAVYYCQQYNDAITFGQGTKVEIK , report its kon.
1.43e+07

Using the record for STLM123 (antibody, from another filing, V domains shown) VH: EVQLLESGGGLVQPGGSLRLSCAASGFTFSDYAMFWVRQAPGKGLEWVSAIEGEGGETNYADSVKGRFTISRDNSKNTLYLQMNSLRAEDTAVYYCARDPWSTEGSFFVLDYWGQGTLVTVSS VL: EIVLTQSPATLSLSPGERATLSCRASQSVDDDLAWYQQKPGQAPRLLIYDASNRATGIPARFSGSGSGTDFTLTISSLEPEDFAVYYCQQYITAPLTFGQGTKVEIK , report its kon.
1e+08

Using the record for STLM219 (antibody, from another filing, V domains shown) VH: EVQLLESGGGLVQPGGSLRLSCAASGFTFSGYDMFWVRQAPGKGLEWVSDIGGEGGSTNYADSVKGRFTISRDNSKNTLYLQMNSLRAEDTAVYYCARDPWSTEGSFFVLDYWGQGTLVTVSS VL: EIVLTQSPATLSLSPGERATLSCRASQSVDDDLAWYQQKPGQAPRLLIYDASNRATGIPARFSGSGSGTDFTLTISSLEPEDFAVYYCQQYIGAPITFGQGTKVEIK , report its kon.
1.07e+07

Using the record for STLM218 (antibody, from another filing, V domains shown) VH: EVQLLESGGGLVQPGGSLRLSCAASGFTFSVDSMFWVRQAPGKGLEWVSSIEGNGGATYYADSVKGRFTISRDNSKNTLYLQMNSLRAEDTAVYYCARDPWSTEGSFFVLDYWGQGTLVTVSS VL: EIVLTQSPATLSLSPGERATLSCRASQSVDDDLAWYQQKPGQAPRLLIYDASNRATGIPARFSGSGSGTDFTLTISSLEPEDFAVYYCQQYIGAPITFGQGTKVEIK , report its kon.
1.45e+07

// next item, kon requested
Using the record for STLM213 (antibody, from another filing, V domains shown) VH: EVQLLESGGGLVQPGGSLRLSCAASGFTFSFYDMIWVRQAPGKGLEWVSTIRGEGGDTNYADSVKGRFTISRDNSKNTLYLQMNSLRAEDTAVYYCARDPWSTEGSFFVLDYWGQGTLVTVSS VL: EIVLTQSPATLSLSPGERATLSCRASQSVDDDLAWYQQKPGQAPRLLIYDASNRATGIPARFSGSGSGTDFTLTISSLEPEDFAVYYCQQYIDAPLTFGQGTKVEIK , report its kon.
1.64e+07
